tested on: HEK-293T; test: Multiplex assay against HEK293T; format: toxicity, cell-based; conditions: human, 24 h, 1 µM, compound concentration 1 uM, replicate 2
Non-standard residues stand in square brackets, D forms with d. Residues, ends and D or L forms follow the SMILES beside them.
readoutKind: Population Healthy Nuclei (%)
The reply should be a number in %, with the unit left off.

Exercise: Look up Population Healthy Nuclei (%): Cc1nn(C)c2nc(NNC(=O)Nc3cc(Cl)nc(Cl)c3)cc(C(C)C)c12
Solution: 82

Exercise: Param item: CC(C)C[C@@H]1NC(=O)[C@@H](C(C)C)NC(=O)[C@@H]2CCCN2C(=O)[C@@H](CC(=O)O)NC(=O)[C@@H](Cc2c[nH]c3ccccc23)NC1=O [BQ-123] (cyclo(L[dW][dD]P[dV]))
Solution: 82

Exercise: Param item: OCCCNc1cc(-c2ccnc(Nc3cccc(Cl)c3)n2)ccn1
Solution: 76

Exercise: Param item: Cc1sc2c(c1C)C(c1ccc(Cl)cc1)=N[C@H](CC(=O)OC(C)(C)C)c1nnc(C)n1-2
Solution: 82

Exercise: Param item: S=C(NCCCc1c[nH]cn1)NCCCN(Cc1ccc(Cl)c(Cl)c1)c1ccc(Br)cn1
Solution: 81

Exercise: Param item: COc1cc(C(=O)N2CC[C@@H](O)[C@@H](N)C2)cc2nc(-c3cc4ccccc4n3CC3CC3)n(C)c12.Cl
Solution: 79

Exercise: Param item: CN(C)C/C=C/C(=O)Nc1ccc(C(=O)N2CCCC(Nc3ncc(Cl)c(-c4c[nH]c5ccccc45)n3)C2)cc1 (stereo not drawn)
Solution: 67

Exercise: Param item: CCc1nn2c(C)cc(C)nc2c1Cc1ccc(-c2nnc(C3CCNCC3)o2)cc1
Solution: 78

Sourced from ChEMBL document CHEMBL5058577
